Molecular target: AEA-DA lipid probe targets in Neuro2a cells (Mus musculus)
Sequence (Q64310 whole entry): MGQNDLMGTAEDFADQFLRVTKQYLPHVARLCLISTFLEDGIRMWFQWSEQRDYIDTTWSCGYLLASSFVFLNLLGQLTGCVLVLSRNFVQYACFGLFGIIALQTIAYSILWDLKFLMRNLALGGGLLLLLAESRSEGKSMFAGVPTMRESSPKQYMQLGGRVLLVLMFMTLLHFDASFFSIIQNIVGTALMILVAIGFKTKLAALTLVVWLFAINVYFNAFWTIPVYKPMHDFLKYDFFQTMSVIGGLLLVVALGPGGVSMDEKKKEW
Settings: competitor 25 μM
Parameter SILAC ratio Surf4: see the listing below.
# print the numeric value only

Study these solved cases before continuing.
* C=CCN(C)CCCCCCOc1ccc(C(=O)c2ccc(Br)cc2)c(F)c1 [Ro 48-8071, reference compound] | 1.1
* CN1CCN(C(=O)c2[nH]c3ccc([N+](=O)[O-])cc3c2-c2ccccc2)CC1 [MJN228] | 1.4
* O=C(/C=C/c1cccnc1)NCCCCC1CCN(C(=O)c2ccccc2)CC1 [FK-866, reference compound] | 1.2

Here is the next item to consider.
Query: # SILAC ratio Surf4 lookup, item CN1CCN(C(=O)c2c(-c3ccccc3)c3cc([N+](=O)[O-])ccc3n2C)CC1 [KML110]
Result: 1.4
